Recorded Plant response rating, Galium by entry
Tested on: galium (catchweed bedstraw, Galium aparine)
Test: Test A postemergence, galium
Format: in vivo
Details: 500 g ai/ha, visual injury, 0 to 100 scale (0 no effect, 100 complete control), approximately 10 days
Quick one: just the number, no unit, thanks!

O=C1NCC(c2cccc(OCc3ccccc3)c2)C1C(=O)Nc1ccccc1Cl (stereo not shown) :: 0
CN1CC(c2cccc(OC(F)(F)C(F)OC(F)(F)F)c2)C(C(=O)Nc2ccccc2F)C1=O (stereo not shown) :: 60
O=C1NCC(c2cccc(Cn3cccn3)c2)C1C(=O)Nc1cccc(F)c1F (stereo not shown) :: 0

[ask] Enter reported Plant response rating, Galium observed with galium (catchweed bedstraw, Galium aparine) for O=C1NCC(c2cccc(Cn3ccc(C(F)(F)F)n3)c2)C1C(=O)Nc1ccc(F)c(F)c1F (stereo not shown)
[reply] 0

[ask] // same read-out, input: CC1(COc2cccc(C3CNC(=O)C3C(=O)Nc3ccccc3C(F)(F)F)c2)COC1 (stereo not shown)
[reply] 0

[ask] // same read-out, input: O=C1NCC(c2cccc(Oc3ncc(F)cn3)c2)C1C(=O)Nc1ccccc1F (single isomer, unassigned)
[reply] 30

[ask] // same read-out, input: O=C1NCC(c2cccc(OCc3ccco3)c2)C1C(=O)Nc1ccccc1C(F)(F)F (stereo not shown)
[reply] 0

[ask] // same read-out, input: O=C1NCC(c2cccc(OCc3ccccc3)c2)C1C(=O)Nc1cccc(F)c1F (stereo not shown)
[reply] 0

[ask] // same read-out, input: O=C1NCC(c2cccc(OCc3ccccc3)c2)C1C(=O)Nc1ccccc1F (stereo not shown)
[reply] 0

[ask] // same read-out, input: CN1CC(c2cccc(Oc3ccc(C(F)(F)F)cn3)c2)C(C(=O)Nc2ccccc2F)C1=O (single isomer, unassigned)
[reply] 80

[ask] // same read-out, input: O=C1NCC(c2cccc(OCC3OCCO3)c2)C1C(=O)Nc1ccccc1C(F)(F)F (stereo not shown)
[reply] 0

[ask] // same read-out, input: O=C1NCC(c2cccc(COc3ccccc3)c2)C1C(=O)Nc1cccc(F)c1F (stereo not shown)
[reply] 0
